Data origin: paper PMC10424183

# assay.system: CRBN/DDB1 complex (Homo sapiens, UniProt Q96SW2)
# Construct: made in house
# Sequence (Q96SW2 40-442 limits assumed, species assumed, one chain of several): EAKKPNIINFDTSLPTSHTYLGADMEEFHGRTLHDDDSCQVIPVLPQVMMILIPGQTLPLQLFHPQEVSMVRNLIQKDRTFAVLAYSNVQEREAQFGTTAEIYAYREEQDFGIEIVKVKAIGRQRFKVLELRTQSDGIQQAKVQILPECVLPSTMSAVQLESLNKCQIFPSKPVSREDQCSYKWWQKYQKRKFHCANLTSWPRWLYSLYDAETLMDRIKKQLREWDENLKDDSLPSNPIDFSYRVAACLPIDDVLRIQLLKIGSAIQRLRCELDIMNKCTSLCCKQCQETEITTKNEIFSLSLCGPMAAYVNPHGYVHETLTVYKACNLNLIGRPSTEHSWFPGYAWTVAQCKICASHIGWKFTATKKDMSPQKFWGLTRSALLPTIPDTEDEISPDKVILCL
# measurement.notes: FP based biochemical assay
# Assay type: binding
# test.settings: top 10 fragments
Listing of recorded IC50 by entry.
Value expressed in µM; do not type the unit.

Below are worked cases with known answers.
> print(dat)
                                   compound                              assay.system  test.value
1              O=c1ccn(Cc2ccccc2)c(=O)[nH]1  CRBN/DDB1 complex (Homo sapiens, UniProt Q96SW2)         168
2  CCOc1ccc(C2CNC(=O)C2)cc1 (centres unmarked)  CRBN/DDB1 complex (Homo sapiens, UniProt Q96SW2)         780
3               COC(=O)c1ccc2c(c1)NC(=O)CO2  CRBN/DDB1 complex (Homo sapiens, UniProt Q96SW2)         153
4              N#CCCCN1C(=O)COc2ccc(Cl)cc21  CRBN/DDB1 complex (Homo sapiens, UniProt Q96SW2)        1640
5                  Cc1ccc(N2CC(=O)NC2=O)cc1  CRBN/DDB1 complex (Homo sapiens, UniProt Q96SW2)         240

--- query ---
IN: Please report the recorded IC50 for COc1cc2c(cc1OC)C(c1cccc(O)c1)CC(=O)N2 (centres unmarked) .
OUT: 1370
